Cited source for all entries: ChEMBL document CHEMBL1126955

# target: Polyunsaturated fatty acid 5-lipoxygenase (Rattus norvegicus, UniProt P12527)
# assay.protocol: In vitro test for inhibition of 5-lipoxygenase in cell-free preparations from rat PMN leukocytes
property.name: IC50 (nM)

CC1Cc2c(OCc3ccc(-c4ccccc4)cn3)ccc3c2c(c(CC(C)(C)CC(=O)NS(C)(=O)=O)n3Cc2ccc(Cl)cc2)S1 (centres undefined)    36

1: CC1Cc2c(OCc3ccc(-c4ccccc4)cn3)ccc3c2c(c(CC(C)(C)C(=O)O)n3Cc2ccccn2)S1 (centres undefined)
2: C[C@@H]1Cc2c(OCc3ccc(-c4ccccc4)cn3)ccc3c2c(c(CC(C)(C)C(=O)O)n3Cc2ccc(Cl)cc2)[S+]1[O-] (some centres undefined)
3: CC1Cc2c(OCc3ccc(-c4ccccc4)cn3)ccc3c2c(c(CCC(=O)O)n3Cc2ccc(Cl)cc2)S1 (centres undefined)
Data request: Task field, ranking: reported IC50, descending order. Thanks in advance for listing the labels in the requested order.
Data returned: 2, 3, 1
(2: 330 nM, 3: 140 nM, 1: 45 nM)

====

# target: Polyunsaturated fatty acid 5-lipoxygenase (Homo sapiens)
# Sequence (P09917 whole entry): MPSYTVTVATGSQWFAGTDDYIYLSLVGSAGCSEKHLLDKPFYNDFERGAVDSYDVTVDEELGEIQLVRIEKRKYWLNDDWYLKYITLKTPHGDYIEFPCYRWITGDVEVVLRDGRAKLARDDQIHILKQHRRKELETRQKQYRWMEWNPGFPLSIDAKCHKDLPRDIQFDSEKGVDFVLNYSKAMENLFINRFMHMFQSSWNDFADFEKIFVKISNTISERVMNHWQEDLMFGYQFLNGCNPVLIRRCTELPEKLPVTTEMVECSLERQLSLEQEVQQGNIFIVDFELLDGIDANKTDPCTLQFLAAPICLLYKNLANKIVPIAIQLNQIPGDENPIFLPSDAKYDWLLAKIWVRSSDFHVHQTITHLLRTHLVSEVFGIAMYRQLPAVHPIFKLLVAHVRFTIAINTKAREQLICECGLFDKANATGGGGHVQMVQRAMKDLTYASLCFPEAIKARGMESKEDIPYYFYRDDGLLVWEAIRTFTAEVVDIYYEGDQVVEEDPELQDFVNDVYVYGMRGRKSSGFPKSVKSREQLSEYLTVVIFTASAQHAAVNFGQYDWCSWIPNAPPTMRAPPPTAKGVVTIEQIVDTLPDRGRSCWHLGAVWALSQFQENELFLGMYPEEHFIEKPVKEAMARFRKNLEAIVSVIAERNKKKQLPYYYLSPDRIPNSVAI
# assay.protocol: In vitro inhibition of LTB4 biosynthesis in [Ca(2+)]-ionophore-activated human polymorphonuclear leukocytes
# Assay type: functional
property.name: IC50 (nM)

A: COc1ccc(Cn2c(CC(C)(C)C(=O)O)c3c4c(c(OCc5ccc(-c6ccccc6)cn5)ccc42)CC(C)S3)cc1 (stereo not given)
B: CC1Cc2c(OCc3ccc(C#N)cn3)ccc3c2c(c(CC(C)(C)C(=O)O)n3Cc2ccc(Cl)cc2)S1 (stereo not given)
C: CC(C)(Cc1c2c3c(c(OCc4ccc(-c5ccccc5)cn4)ccc3n1Cc1ccc(Cl)cc1)CCS2)C(=O)O
D: CC1Cc2c(OCc3ccc(-c4ccccc4)cn3)ccc3c2c(c(CC(C)(C)C(=O)O)n3C)S1 (stereo not given)
E: CCCCc1ccc(COc2ccc3c4c2CC(C)Sc4c(CC(C)(C)C(=O)O)n3Cc2ccc(Cl)cc2)nc1 (stereo not given)
Data request: Task for the reader: place the molecules above in descending order according to recorded IC50. Write the labels in rank order as requested.
Data returned: D, C, B, E, A

====

# target: Polyunsaturated fatty acid 5-lipoxygenase (Rattus norvegicus)
# Sequence (P12527 whole entry): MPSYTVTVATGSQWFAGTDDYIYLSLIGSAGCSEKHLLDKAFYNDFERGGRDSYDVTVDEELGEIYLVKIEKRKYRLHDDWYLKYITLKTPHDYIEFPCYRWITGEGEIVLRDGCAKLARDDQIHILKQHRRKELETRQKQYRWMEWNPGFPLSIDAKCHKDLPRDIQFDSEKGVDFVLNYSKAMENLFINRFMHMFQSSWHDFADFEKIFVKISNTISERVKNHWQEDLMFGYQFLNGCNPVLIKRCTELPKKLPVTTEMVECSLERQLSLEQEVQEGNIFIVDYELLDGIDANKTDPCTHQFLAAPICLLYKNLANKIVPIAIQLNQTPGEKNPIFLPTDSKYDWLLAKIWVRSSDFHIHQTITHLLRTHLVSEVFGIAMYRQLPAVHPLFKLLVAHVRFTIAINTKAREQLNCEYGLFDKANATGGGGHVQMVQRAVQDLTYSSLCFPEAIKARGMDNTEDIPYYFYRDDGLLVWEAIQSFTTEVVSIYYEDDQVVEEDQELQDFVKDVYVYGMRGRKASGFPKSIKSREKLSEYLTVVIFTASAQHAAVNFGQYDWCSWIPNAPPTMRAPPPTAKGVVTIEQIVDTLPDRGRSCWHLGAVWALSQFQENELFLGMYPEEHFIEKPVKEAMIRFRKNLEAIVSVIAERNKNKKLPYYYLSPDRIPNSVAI
# assay.protocol: In vitro test for inhibition of 5-lipoxygenase in cell-free preparations from rat PMN leukocytes
property.name: IC50 (nM)

CCCCn1c(CC(C)(C)C(=O)O)c2c3c(c(OCc4ccc(-c5ccccc5)cn4)ccc31)CC(C)S2 (stereo not drawn)    130

P: CC1Cc2c(OCc3ccc(-c4ccccc4)cn3)ccc3c2c(c(CC(C)(C)C(=O)O)n3CC2CCCCC2)S1 (stereo not drawn)
Q: CC1Cc2c(OCc3ccc(-c4ccccc4)cn3)ccc3c2c(c(CCC(C)(C)C(=O)O)n3Cc2ccc(Cl)cc2)S1 (stereo not drawn)
R: C[C@H]1Cc2c(OCc3ccc(-c4ccccc4)cn3)ccc3c2c(c(CC(C)(C)C(=O)O)n3Cc2ccc(Cl)cc2)[S+]1[O-] (stereo partly drawn)
S: CC1Cc2c(OCCc3ccc(-c4ccccc4)cn3)ccc3c2c(c(CC(C)(C)Cc2nnn[nH]2)n3Cc2ccc(Cl)cc2)S1 (stereo not drawn)
T: CCCCc1ccc(COc2ccc3c4c2CC(C)Sc4c(CC(C)(C)C(=O)O)n3Cc2ccc(Cl)cc2)nc1 (stereo not drawn)
Data request: Reorder the items by IC50, least to greatest. The labels, placed in the requested order, form the answer.
Data returned: P, Q, T, S, R
(P: 35 nM, Q: 330 nM, T: 500 nM, S: 1200 nM, R: 8000 nM)

====

# target: Polyunsaturated fatty acid 5-lipoxygenase (Rattus norvegicus, UniProt P12527)
# assay.protocol: In vitro test for inhibition of 5-lipoxygenase in cell-free preparations from rat PMN leukocytes
property.name: IC50 (nM)

CC1Cc2c(OCc3ccc(-c4ccccc4)cn3)ccc3c2c(c(CC(C)(C)C(=O)O)n3Cc2ccc(Cl)cc2)S1(=O)=O (stereo not drawn)    320
CC(C)(Cc1c2c3c(c(OCc4ccc(-c5ccccc5)cn4)ccc3n1Cc1ccc(Cl)cc1)CCS2)C(=O)O    200
CC1Cc2c(OCc3ccc4ccccc4n3)ccc3c2c(c(CC(C)(C)C(=O)O)n3Cc2ccc(Cl)cc2)S1 (stereo not drawn)    600
CC1Cc2c(OCc3ccc(-c4ccccc4)cc3)ccc3c2c(c(CC(C)(C)C(=O)O)n3Cc2ccc(Cl)cc2)S1 (stereo not drawn)    1000
CC1Cc2c(OCc3ccc(-c4ccccc4)cn3)ccc3c2c(c(CC(C)(C)C(=O)O)n3CCCc2ccccc2)S1 (stereo not drawn)    35

a: CC1Cc2c(OCc3ccc(-c4ccccc4)cn3)ccc3c2c(c(CC(C)(C)CC(=O)NS(=O)(=O)C(F)(F)F)n3Cc2ccc(Cl)cc2)S1 (stereo not drawn)
b: CC1Cc2c(OCc3ccccn3)ccc3c2c(c(CC(C)(C)C(=O)O)n3Cc2ccc(Cl)cc2)S1 (stereo not drawn)
Data request: Return label of the item with the larger IC50. Candidates: a , b . Your answer should be the label of the entry you select.
Data returned: b
(b: 630 nM, a: 67 nM)

====

# assay.protocol: Bioavailability in rat (dose 20 mg/kg p.o. in 1% methocel, and 5 mg/kg i.v. in PEG400)
# Type: ADME, organism-based
# condition.notes: in vivo, po
property.name: bioavailability (%)

CC1Cc2c(OCc3ccc(-c4ccccc4)cn3)ccc3c2c(c(CC(C)(C)Cc2nnn[nH]2)n3Cc2ccc(Cl)cc2)S1 (centres undefined)    40
CC1Cc2c(OCc3ccc(-c4ccccc4)cn3)ccc3c2c(c(CC(C)(C)CC(=O)O)n3Cc2ccc(Cl)cc2)S1 (centres undefined)    27
CC1Cc2c(OCc3ccc(-c4ccccc4)cn3)ccc3c2c(c(CC(C)(C)CC(=O)NS(C)(=O)=O)n3Cc2ccc(Cl)cc2)S1 (centres undefined)    45
CC1Cc2c(CCc3ccc(-c4ccccc4)cn3)ccc3c2c(c(CC(C)(C)Cc2nnn[nH]2)n3Cc2ccc(Cl)cc2)S1 (centres undefined)    36

====

# target: UniProt:P09917
# assay.protocol: In vitro inhibition of LTB4 biosynthesis in [Ca(2+)]-ionophore-activated human polymorphonuclear leukocytes
# Assay type: functional
property.name: IC50 (nM)

Solved cases (8 shown):
CC1Cc2c(OCc3cc(-c4ccccc4)ccn3)ccc3c2c(c(CC(C)(C)C(=O)O)n3Cc2ccc(Cl)cc2)S1 (stereo unspecified)    80
CC1Cc2c(OCc3ccc(-c4ccccc4)cn3)ccc3c2c(c(CC(C)(C)CC(=O)NS(=O)(=O)C(F)(F)F)n3Cc2ccc(Cl)cc2)S1 (stereo unspecified)    125
CC1Cc2c(OCc3ccc(-c4ccccc4)cc3)ccc3c2c(c(CC(C)(C)C(=O)O)n3Cc2ccc(Cl)cc2)S1 (stereo unspecified)    165
C[C@@H]1Cc2c(OCc3ccc(-c4ccccc4)cn3)ccc3c2c(c(CC(C)(C)C(=O)O)n3Cc2ccc(Cl)cc2)[S+]1[O-] (stereo partly specified)    830
CC1Cc2c(OCc3ccc(-c4ccccc4)cn3)ccc3c2c(c(CC(C)(C)C(=O)O)n3CCCc2ccccc2)S1 (stereo unspecified)    23
COc1ccc(COc2ccc3c4c2CC(C)Sc4c(CC(C)(C)C(=O)O)n3Cc2ccc(Cl)cc2)nc1 (stereo unspecified)    12
CC1Cc2c(OCc3ccc(-c4ccccc4)cn3)ccc3c2c(c(CC(C)(C)Cc2nnn[nH]2)n3Cc2ccc(Cl)cc2)S1 (stereo unspecified)    8
CC1Cc2c(OCc3ccc(-c4ccccc4)cn3)ccc3c2c(c(CC(=O)O)n3Cc2ccc(Cl)cc2)S1 (stereo unspecified)    37

P: CC1Cc2c(OCc3ccc(-c4ccccc4)cn3)ccc3c2c(c(CCC(C)(C)C(=O)O)n3Cc2ccc(Cl)cc2)S1 (stereo unspecified)
Q: CC1Cc2c(CCc3ccc(-c4ccccc4)cn3)ccc3c2c(c(CC(C)(C)Cc2nnn[nH]2)n3Cc2ccc(Cl)cc2)S1 (stereo unspecified)
Data request: Looking only at measured IC50, which entry is lower, P or Q ? Please respond with the label that marks your chosen entry.
Data returned: Q
(Q: 3 nM, P: 23 nM)

A: CC1Cc2c(OCc3cc4ccccc4cn3)ccc3c2c(c(CC(C)(C)C(=O)O)n3Cc2ccc(Cl)cc2)S1 (stereo unspecified)
B: CC1Cc2c(OCc3ccc(-c4ccccc4)cn3)ccc3c2c(c(CC(C)(C)C(=O)O)n3Cc2ccc(S(C)(=O)=O)cc2)S1 (stereo unspecified)
Data request: // which entry has the larger IC50 value, A or B ? Answer format: the label of the selected item.
Data returned: B
